- System: HACAT
- Experimental protocol: qHTS assay to identify novel small-molecules to repurpose for Merkel cell carcinoma treatment (AID 1296009); further: nearly all actives have a fitted effect of over 60% in size
- Reported conditions: MCC and control cell lines, CellTiter-Glo viability, 72 h; at 44.8 µM (top of the series) unless noted
- Source text: MCC is a rare and aggressive neuroendocrine skin cancer with limited treatment options. Approximately 80% of MCCs have the Merkel cell polyomavirus (MCPyV) DNA integrated into the host genome (virus-positive: VP-MCC) and viral oncogenes drive oncogenesis. The remaining MCCs are virus-negative (VN-MCC) and are caused by UV mutagenesis. […] Using cell viability as a readout (CellTiter-Glo assay) we found both overlapping and distinct drugs that can be repurposed for the treatment of VP-MCC and VN-MCC. […]
Results filed as inconclusive are left out. Active and inactive are the calls of the source. The call rests on the fitted dose curve; in most records, active means well fitted inhibition curve with a large enough effect; inconclusive means small, poorly fitted or top-dose-only effect; inactive means flat fitted curve, though single readings scatter.
Reported endpoint: outcome

These solved cases illustrate the format of a correct answer.
>  <Molecule>
C=C1C(=O)OC2C1CCC1(C)C(O)CCC(=C)C21 (centres undefined)

>  <outcome>
inactive

$$$$
>  <Molecule>
O=C(Nc1cc(C(F)(F)F)ccc1N1CCCCC1)c1ccncc1

>  <outcome>
inactive

$$$$
>  <Molecule>
Cc1cccc(N2CCN(C(=O)c3cc(S(=O)(=O)N(C)C)ccc3N3CCCC3)CC2)c1C

>  <outcome>
inactive

$$$$
>  <Molecule>
CNCCC(c1cccs1)c1ccc(O)c2ccccc12 (centres undefined)

>  <outcome>
inactive

$$$$
>  <Molecule>
Cc1nc(Nc2ccc(F)cc2)nc(N2CCc3ccccc3C2C)c1C (centres undefined)

>  <outcome>
inactive

$$$$

Given the molecule Cc1cc(OCCCS(C)(=O)=O)cc(C)c1-c1cccc(COc2ccc(C3=CC(=O)NS3=O)cc2)c1 (centres undefined) , what is its reported outcome?
inactive

Similarly, O=C(Nc1ccn(Cc2ccc(O)cc2C(F)(F)F)n1)c1c(F)cccc1F ?
inactive

Record: CC(=O)C=C=C1C(C)(C)CC(O)CC1(C)O[C@@H]1O[C@H](CO[C@H]2OC[C@](O)(CO)[C@H]2O)[C@@H](O)[C@H](O)[C@H]1O (some centres undefined)
inactive [at 17.4 µM]

====

- Tested on: HeLa
- Experimental protocol: Primary qHTS to identify gynecologic anti-cancer compounds using libraries of approved drugs and bioactive compounds (AID 1345084); further: nearly all actives have a fitted effect of over 55% in size
- Reported conditions: Gynecologic cancer cell panel viability, ATPlite luminescence, 48 h; series mostly up to 57.5 µM
Inconclusive results are not listed. Activity calls are given as the source filed them. Calls come from the whole dose curve; as a rule, active = well fitted cell-killing curve with a large enough effect; inconclusive = small, poorly fitted or top-dose-only effect, or effect the other way; inactive = flat fitted curve, though single readings scatter. Where a SMILES comes first, the peptide text is derived from it. The star is where a group is joined. Cbz = O=C(OCc1ccccc1)*; CH2Cl = ClC*
Outcome field: choose from Yes for active, No for inactive

>  <Compound>
c1cc(-c2cnn3cc(-c4ccc(N5CCNCC5)cc4)cnc23)c2cccnc2c1

>  <Group label>
No

$$$$
>  <Compound>
CN1CC[C@@H](c2c(O)cc(O)c3c(=O)cc(-c4ccc(C(F)(F)F)cc4Cl)oc23)[C@@H]1CO

>  <Group label>
No

$$$$
>  <Compound>
C=C1C(=O)O[C@@H]2C3=C(C)CCC[C@]3(C)CC[C@@]12O

>  <Group label>
No

$$$$

Called result for CC(C)C[C@H](NC(=O)CNC(=O)OCc1ccccc1)C(=O)N[C@@H](Cc1ccccc1)C(=O)CCl (Cbz-Gly-Leu-Phe-CH2Cl)
No

Likewise for C=C(C(=O)OC)[C@@H]1CC=C2C=CC(=O)[C@H](C)[C@@]2(C)C1 ?
No

Could you do the same for CCCc1cc(C)[nH]c(=O)c1CNC(=O)c1cc(-c2ccnc(N3CCN(C)CC3)c2)cc2c1cnn2C(C)C , please?
Yes

And then C=C1/C(=C/C=C2\CCC[C@]3(C)[C@@H]([C@H](C)/C=C/[C@@H](C)C(C)C)CC[C@@H]23)C[C@@H](O)C[C@@H]1O , what is it?
No

One more compound: C=C1/C(=C/C=C2\CCC[C@]3(C)[C@@H]([C@@H](C)OCCC(O)(CC)CC)CC[C@@H]23)C[C@@H](O)C[C@@H]1O
No
